ASSAYED_TARGET: Glucose transporter (Leishmania mexicana)
METHOD_DESCRIPTION: ST_JUDE_LEISH: Cytotoxicity at 2uM final concentration against transgenic Leishmania Mexicana promastigotes LmGT2 that are glucose transport deficient and complemented with the L. Mexicana glucose transporter 2. Activity is measured by DNA content using SYBR green in vitro
Format: functional
Provide the recorded inhibition for the entries that follow.
Value expressed in %; do not type the unit.

Fill in: inhibition of CCOc1ccc(C(=O)Nc2cc(Cl)ccc2O)cc1Cl is ___
-1.5

Fill in: inhibition of COc1ccc(-c2cc(C(=O)Nc3ccc(CCCN(C)Cc4ccc(OC)c(OC)c4)cc3)c3ccccc3n2)cc1 is ___
1.44

Fill in: inhibition of CCCCNCCOc1ccc(-c2nc(-c3ccccc3)c(-c3ccccc3)[nH]2)cc1 is ___
0.53

Fill in: inhibition of COc1ccc2ncc(C#N)c(CCN3CCC(NCc4cnc5c(c4)OCCO5)CC3)c2n1 is ___
6.56

Fill in: inhibition of COc1ccc(Nc2ncc3c(-c4cccc(NC(=O)Cc5cccc(F)c5)c4)c[nH]c3n2)cc1OC is ___
4.39

Fill in: inhibition of Nc1c(I)cc(C(=O)Nc2ccc3nc4c(c(N)c3c2)CCCC4)cc1I is ___
1.17

Fill in: inhibition of COC(=O)c1ccc2nc(-c3cc(-c4cccc(-c5ccccc5)c4)cnc3N)[nH]c2c1 is ___
4.17

Fill in: inhibition of CCC1(CC)NC(N)=NC(=N)N1OCc1ccc(Cl)c(Cl)c1 is ___
4.43

Fill in: inhibition of CSC1=NC(=Nc2ccccc2C)C2(CCC(C(C)(C)C)CC2)N1c1ccccc1Cl (centres undefined) is ___
-2.88

Fill in: inhibition of Nc1nc(N)c2c3c(ccc2n1)NCCC3 is ___
-0.59

Fill in: inhibition of CC(C)(NCc1ccc(OC(F)(F)F)cc1)c1nc(-c2ccc(Cl)c(O)c2)c(-c2ccncc2)[nH]1 is ___
1.94

Fill in: inhibition of COc1ccc2nccc([C@@H](O)CN3CCC(NC(=O)/C=C/c4cccc(-c5ccccc5)c4)CC3)c2c1 is ___
0.36

Fill in: inhibition of COc1cccc(CN(C(=O)Nc2ccccc2F)[C@H]2C[C@H]3C(=O)Nc4cc(F)ccc4C(=O)N3C2)c1 is ___
5.37

Fill in: inhibition of CS(=O)(=O)Nc1cccc(-c2cnc3[nH]cc(-c4ccc(CCC(=O)O)cc4)c3c2)c1 is ___
4.76

Fill in: inhibition of O=C(NCCc1ccccc1)N(Cc1ccc(-c2cccc(CN3CCNCC3)c2)cc1)C1CCN(Cc2ccccc2)CC1 is ___
0.74

Fill in: inhibition of Cc1cc(CNCCCCCCCNCc2ccc(Cl)cc2)ccc1O is ___
0.81

Fill in: inhibition of CC1CC(C)CN(CCCNc2ccc(C(=O)Nc3ccc(C(F)(F)F)cc3)cc2[N+](=O)[O-])C1 (centres undefined) is ___
1.47

Fill in: inhibition of Cc1ccoc1C(=O)Nc1cccc(-c2cccc(-c3nc4ccccc4[nH]3)c2)c1 is ___
5.58

Fill in: inhibition of O=C(Nc1cccc(-c2cc(-c3c(Cl)cccc3Cl)no2)c1)c1cnc2ccccc2c1 is ___
6.2

====

ASSAYED_TARGET: Hexose transporter 1 (Plasmodium falciparum) (UniProt O97467)
METHOD_DESCRIPTION: ST_JUDE_LEISH: Cytotoxicity at 2uM final concentration against transgenic Leishmania Mexicana promastigotes LmPfHT that are glucose transport deficient and complemented with the Plasmodium falciparum hexose transporter. Activity is measured by DNA content using SYBR green in vitro
Format: functional
Provide the recorded inhibition for the entries that follow.
Value expressed in %; do not type the unit.

Lookup: inhibition / Hexose transporter 1 (Plasmodium falciparum) (UniProt O97467) / CCN(CC)CCN(Cc1ccc(-c2ccc(C(F)(F)F)cc2)cc1)C(=O)Cn1cc(Cc2cnn(C)c2)c(=O)n2nc(-c3ccccc3)cc12
4.37

Lookup: inhibition / Hexose transporter 1 (Plasmodium falciparum) (UniProt O97467) / O=C(/C=C/c1ccc(Cl)c(Cl)c1)NCCCCCN1CCC(NC(=O)Nc2cccc(C(F)(F)F)c2)CC1
-0.93

Lookup: inhibition / Hexose transporter 1 (Plasmodium falciparum) (UniProt O97467) / CCCCNCc1ccc(-c2nc(CN(CCCn3ccnc3)C(=O)C3COc4ccccc4O3)cs2)cc1 (centres undefined)
4.78

Lookup: inhibition / Hexose transporter 1 (Plasmodium falciparum) (UniProt O97467) / CC1(C)N=C(N)N=C(N)N1OCCCOc1cc(Cl)c(Cl)cc1Cl
4.05

Lookup: inhibition / Hexose transporter 1 (Plasmodium falciparum) (UniProt O97467) / Nc1ccc2nc(C=Cc3ccccc3)[nH]c2c1
0.85

Lookup: inhibition / Hexose transporter 1 (Plasmodium falciparum) (UniProt O97467) / FC(F)(F)c1ccc2[nH]c(-c3ccc(-c4ccc(CN5CCN(c6cnccn6)CC5)cc4)s3)nc2c1
1.86

Lookup: inhibition / Hexose transporter 1 (Plasmodium falciparum) (UniProt O97467) / N#Cc1ccc(CN2CCC(Oc3ccc(NC(=O)c4cccs4)cc3Cl)C2)cc1 (centres undefined)
3.89

Lookup: inhibition / Hexose transporter 1 (Plasmodium falciparum) (UniProt O97467) / Cc1cccc(C(O)CNc2ccnc(Nc3cccc(-c4csc(C)n4)c3)n2)c1 (centres undefined)
4.04

Lookup: inhibition / Hexose transporter 1 (Plasmodium falciparum) (UniProt O97467) / COc1ccc(Nc2ncc3c(-c4cccc(NC(=O)Cc5cccc(F)c5)c4)c[nH]c3n2)cc1OC
3.23
